Tested on: M14 melanoma
Assay: NCI-60 one-dose screen, 48 h
Settings: 10 µM unless noted
Description: Growth inhibition of the M14 human tumor cell line is measured as a screen for anti-cancer activity. Cells are grown in 96 well plates and exposed to the test compound for 48 hours. Compounds are tested at a single concentration, which is 10^-5 M for most compounds. The reported endpoint is percent growth (GI% or GIPRCNT), where numbers from 0 - 100% represent growth inhibition, and numbers from -100% - 0 represent cell death. For example, a value of 40 represents 60% growth inhibition. […]
This is part of a sample that, as a whole, favours compounds with a hit. Of some 83,000 tested, about 20% had one in any assay. Calls of active or inactive are those of the source. How the source made its calls: active means growth percent below 10; inactive means the rest.
Classes used: active, inactive

{"Molecule": "COc1cc(/C=C\\c2cc(OC)c(OC)c(OC)c2)cc(N/C=C\\C(=O)c2cc(OC)c(OC)c(OC)c2)c1OC", "Cat": "active"}
{"Molecule": "CC(=O)[O][Hg][c]1c(N)c(C)cc(C)c1F", "Cat": "active"}
{"Molecule": "C=C(C)[C@@]12OC3(/C=C/C=C/CCCCC)O[C@@H]1[C@@H]1[C@@H]4O[C@]4(CO)[C@@H](O)[C@]4(O)C(=O)C(C)=C[C@H]4[C@@]1(O3)[C@H](C)[C@H]2OC(=O)c1ccccc1", "Cat": "inactive"}
{"Molecule": "O=C(CCl)c1ccc([N+](=O)[O-])o1", "Cat": "active"}
{"Molecule": "O=C1C2CC=CCC2C(=O)N1SC(Cl)(Cl)Cl (stereo not drawn)", "Cat": "inactive"}
{"Molecule": "COc1cc2c(cc1OCCCn1c(-c3ccccn3)nc3ccccc31)N=C[C@@H]1CCCN1C2=O", "Cat": "inactive"}
{"Molecule": "COC(=O)[C@H](Cc1c[nH]c2ccccc12)NC(=O)[C@@H](OC)[C@@H]1Cc2cc3cc(OC4CC(OC5CC(O)C(O)C(C)O5)C(O)C(C)O4)c(C)c(O)c3c(O)c2C(=O)[C@H]1OC1CC(OC2CC(OC3CC(C)(O)C(O)C(C)O3)C(O)C(C)O2)C(O)C(C)O1 (stereo partly drawn)", "Cat": "active"}
{"Molecule": "Fc1cccc(NCOOC2(OOCNc3cccc(F)c3)CCCCC2)c1", "Cat": "inactive"}

---

Listed here: items and their measured growth.
system: NCI/ADR-RES ovarian; experiment: NCI-60 one-dose screen, 48 h (100 = growth as untreated, 0 = no growth, -100 = all killed); details: 10 µM unless noted
This is part of a sample that, as a whole, favours compounds with a hit. Of some 83,000 tested, about 20% had one in any assay.

{"Compound": "C1CCC2(CC1)OOCNCOO2", "Unit Label": "%", "growth": 101}
{"Compound": "CCOC(=O)[C@@H](C)C[C@H](Cc1ccccc1)NC(=O)c1csc([C@@H](C[C@H](C(C)C)N(C)C(=O)[C@@H](NC(=O)[C@H]2CCCCN2C)C(C)(C)CC)OC(C)=O)n1", "Unit Label": "%", "growth": 14.7}
{"Compound": "N#CC1C(C#N)C2CCC1C1C2N1c1ccccc1 (stereo not given)", "Unit Label": "%", "growth": 111}
{"Compound": "CCCCCCC(=O)NC1=C(N2CC2)C(=O)C(NC(=O)CCCCCC)=C(N2CC2)C1=O", "Unit Label": "%", "growth": 60.1}
{"Compound": "CC[C@H](C)[C@H](NC(=O)[C@H]1CCCCN1C)C(=O)N(C)[C@H](C[C@@H](OC(C)=O)c1nc(C(=O)N[C@@H](Cc2ccccc2)C[C@H](C)C(=O)OC)cs1)C(C)C", "Unit Label": "%", "growth": -4.28}
{"Compound": "O=P1(NCCCl)OCCCN1CCCl (stereo not given)", "Unit Label": "%", "growth": 110}
{"Compound": "COC(=O)CCc1c[nH]c2ccc(N(CCCl)CCCl)cc12", "Unit Label": "%", "growth": 52.7}
{"Compound": "CC(C)(C)C(=O)OCOP(=O)(NCc1ccccc1)C1CCCN(O)C1=O (stereo not given)", "Unit Label": "%", "growth": 13.5}
{"Compound": "Clc1ccc(COC(Cn2ccnc2)c2ccc(Cl)cc2Cl)cc1 (stereo not given)", "Unit Label": "%", "growth": 23.3}
{"Compound": "O=C(N/N=C\\c1ccc(N(CCCl)CCCl)cc1Cl)c1cccnc1", "Unit Label": "%", "growth": 86.4}
{"Compound": "CCCCN(CCCC)P(=O)(Oc1ccccc1)Oc1ccccc1", "Unit Label": "%", "growth": 51.4}
{"Compound": "COc1cc2c(cc1OCCCCn1c(-c3cccs3)nc3ccccc31)N=C[C@@H]1CCCN1C2=O", "Unit Label": "%", "growth": 36.5}
{"Compound": "CCN1C(=O)C(=C/C=C/c2ccccc2)C(=O)N(CC)C1=O", "Unit Label": "%", "growth": 78.6}
{"Compound": "Nc1c(F)cc(-c2nc3cc(F)ccc3[se]2)cc1Br", "Unit Label": "%", "growth": 89.8}
{"Compound": "CC(C)[C@@H]1NC(=O)[C@]2(C)CSC(=N2)c2csc(n2)CNC(=O)C[C@@H](/C=C/CCS)OC1=O", "Unit Label": "%", "growth": 52}
{"Compound": "CN(C)C(=O)Oc1ccccc1-c1ccccc1", "Unit Label": "%", "growth": 102}
{"Compound": "Cc1ccc(Nc2nc3c(s2)C2=CC[C@@H]4[C@H](CC[C@]5(C)C(=O)CC[C@@H]45)[C@@]2(C)CC3)cc1", "Unit Label": "%", "growth": 57.2}
{"Compound": "Cc1sc2c(c1C)C(c1ccc(Cl)cc1)=N[C@@H](CC(=O)OC(C)(C)C)c1nnc(C)n1-2", "Unit Label": "%", "growth": 34.2}
{"Compound": "C/C(Cc1ccc(Cl)cc1)=C(\\c1ccc(OCCN2CCOCC2)cc1)c1ccc(OC(=O)Cc2ccccc2)cc1", "Unit Label": "%", "growth": 98.7}
{"Compound": "CCCCCCCCC(CO)NCCc1ccccc1 (stereo not given)", "Unit Label": "%", "growth": 112}

---

test system: HOP-62 NSCLC; assay: NCI-60 one-dose screen, 48 h (100 = growth as untreated, 0 = no growth, -100 = all killed); settings: 10 µM unless noted
Compounds without any hit were thinned out: in the full panel of roughly 83,000, 20% have a hit.
Mark MET for reported growth of 90% or greater; mark NOT MET for anything smaller.

{"Compound": "CC12CC(=O)C3(SC#N)C(CCC4=CC(=O)CCC43C)C1CCC2=O (centres undefined)", "Cat": "MET"}
{"Compound": "C=C1C[C@](OC)([C@H](O)C(=O)N[C@@H](OC)[C@@H]2C[C@@H](O)C(C)(C)[C@@H](C[C@@H](COC)OC)O2)O[C@H](C)[C@@H]1C", "Cat": "NOT MET"}
{"Compound": "COC(=O)[C@@H](C)C[C@H](Cc1ccccc1)NC(=O)c1csc(CC[C@H](C(C)C)N(C)C(=O)[C@@H](NC(=O)[C@H]2CCCCN2C)C(C)C)n1", "Cat": "NOT MET"}
{"Compound": "O=C(O)c1ccc([S-])cc1.[Au+].c1ccc(CN2[CH-]N(Cc3ccccc3)C(c3ccccc3)=C2c2ccccc2)cc1", "Cat": "NOT MET"}
{"Compound": "NC(CCl)CCl", "Cat": "NOT MET"}
{"Compound": "C[C@@H]1C[C@@]2(C)[C@@H](CC[C@@H]3[C@@H]2CC[C@]2(C)C(=O)CC[C@@H]32)CC1=O", "Cat": "NOT MET"}
{"Compound": "CCCC[C@H](NC(=O)[C@H]1CCCCN1C)C(=O)N(C)[C@H](C[C@@H](OC(C)=O)c1nc(C(=O)N[C@@H](Cc2ccccc2)C[C@H](C)C(=O)OCC)cs1)C(C)C", "Cat": "NOT MET"}
{"Compound": "O=[N+]([O-])c1ccc(OP(=O)(CCl)N(CCCl)CCCl)cc1 (centres undefined)", "Cat": "MET"}
{"Compound": "COc1cc2c(cc1OCCCCn1c(-c3cccs3)nc3ccccc31)N=C[C@@H]1CCCN1C2=O", "Cat": "NOT MET"}
{"Compound": "CC(=O)O[C@@H]1CC[C@]2(C)[C@H]3CC[C@]4(C)C(=O)CC[C@H]4[C@@H]3C[C@@H]3SC(N)=N[C@@]32C1", "Cat": "NOT MET"}
{"Compound": "Clc1ccc(CO/N=C(\\Cn2ccnc2)c2ccc(Cl)cc2Cl)c(Cl)c1", "Cat": "MET"}
{"Compound": "CN1C(=O)C(=Cc2cn(Cc3ccccc3)c3ccccc23)C(=O)N(C)C1=O", "Cat": "NOT MET"}
{"Compound": "Cc1ccc(Nc2nc3c(s2)C2=CC[C@@H]4[C@H](CC[C@]5(C)C(=O)CC[C@@H]45)[C@@]2(C)CC3)cc1", "Cat": "NOT MET"}
{"Compound": "CCC(=O)Nc1ccc(Cl)c(Cl)c1", "Cat": "MET"}
{"Compound": "COC(=O)[C@@]1(O)C[C@H]2O[C@]1(C)n1c3ccccc3c3c4c(c5c6ccccc6n2c5c31)C(=O)NC4", "Cat": "NOT MET"}
{"Compound": "CCOC(=O)CCC(NC(=O)C(Cc1ccc(N(CCCl)CCCl)cc1)NC=O)C(=O)OCC (centres undefined)", "Cat": "MET"}
{"Compound": "CC(C)OC(=O)[C@H](C)NP(=O)(Oc1ccccc1)C1CCCN(O)C1=O (some centres undefined)", "Cat": "MET"}
{"Compound": "COC(=O)CC[C@H](Cc1ccccc1)NC(=O)c1csc([C@@H](C[C@H](C(C)C)N(C)C(=O)[C@@H](NC(=O)[C@H]2CCCCN2C)C(C)C)OC(C)=O)n1", "Cat": "NOT MET"}
{"Compound": "CCCCNC(c1ccc(Cl)cc1)C(O)c1ccc(Cl)cc1 (centres undefined)", "Cat": "NOT MET"}
{"Compound": "Cc1ccc2c(C(C[N+](=O)[O-])c3cccs3)c(-c3ccccc3)[nH]c2c1 (centres undefined)", "Cat": "NOT MET"}
{"Compound": "COC(=O)[C@@H](C)C[C@H](Cc1ccccc1)NC(=O)c1cccc([C@@H](C[C@H](C(C)C)N(C)C(=O)[C@@H](NC(=O)[C@H]2CCCCN2C)C(C)C)OC(C)=O)n1", "Cat": "NOT MET"}
{"Compound": "Cc1cc(NC(=O)NCc2ccc(N3C(N)=NC(N)=NC3(C)C)cc2)ccc1S(=O)(=O)F", "Cat": "NOT MET"}
{"Compound": "O=C1C2CC=CCC2C(=O)N1SC(Cl)(Cl)Cl (centres undefined)", "Cat": "MET"}
{"Compound": "COC(=O)C12CC(NC(=O)c3csc([C@@H](C[C@H](C(C)C)N(C)C(=O)[C@@H](NC(=O)[C@H]4CCCCN4C)C(C)C)OC(C)=O)n3)(C1)C2", "Cat": "NOT MET"}
{"Compound": "CC[C@]12C=CCN3CC[C@]4(C(=C(C(=O)OC)C1)Nc1cc(OC)c(OC(C)=O)cc14)[C@@H]32", "Cat": "NOT MET"}
{"Compound": "COc1cc(/C=C\\c2cc(OC)c(OC)c(OC)c2)cc(N/C=C\\C(=O)c2cc(OC)c(OC)c(OC)c2)c1OC", "Cat": "NOT MET"}
{"Compound": "Oc1c(CCl)cc(Cl)cc1CCl", "Cat": "MET"}
{"Compound": "COc1ccc(/C=C\\c2cc(OC)c(OC)c(OC)c2)cc1NC(=O)/C=C/c1cc(OC)c(OC)c(OC)c1", "Cat": "NOT MET"}
{"Compound": "COC(=O)[C@@H](C)C[C@H](Cc1ccccc1)NC(=O)c1csc([C@@H](C[C@H](C(C)C)N(C)C(=O)C2(NC(=O)[C@H]3CCCCN3C)CC2)OC(C)=O)n1", "Cat": "NOT MET"}
{"Compound": "O=C(O)CNC(=O)C(Cl)(Cl)Cl", "Cat": "MET"}

From: PubChem BioAssay (NCI)
